Listed here: items and their measured IC50 (neutralization).
- system: HIV-1 Env of isolate MGRM-F1-023 (subtype F) (HIV-1)
- assay: cell-based or functional assay

PGT-131 (antibody, V domains shown) VH: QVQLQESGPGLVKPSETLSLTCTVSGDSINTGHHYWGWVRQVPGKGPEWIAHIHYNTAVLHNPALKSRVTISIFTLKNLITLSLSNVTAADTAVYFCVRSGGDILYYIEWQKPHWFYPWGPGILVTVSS VL: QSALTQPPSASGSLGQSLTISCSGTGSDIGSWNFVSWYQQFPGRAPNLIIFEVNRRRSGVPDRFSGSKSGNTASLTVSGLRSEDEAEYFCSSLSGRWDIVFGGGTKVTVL : > 50 µg/mL
PGT-137 (antibody, V domains shown) VH: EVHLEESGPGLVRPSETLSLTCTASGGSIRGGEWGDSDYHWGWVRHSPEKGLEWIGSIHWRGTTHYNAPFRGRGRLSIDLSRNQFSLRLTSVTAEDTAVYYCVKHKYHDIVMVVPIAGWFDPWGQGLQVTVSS VL: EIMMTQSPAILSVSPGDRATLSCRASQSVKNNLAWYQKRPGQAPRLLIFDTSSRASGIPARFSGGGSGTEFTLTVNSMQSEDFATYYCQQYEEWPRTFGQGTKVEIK : > 50 µg/mL
PGT-136 (antibody, V domains shown) VH: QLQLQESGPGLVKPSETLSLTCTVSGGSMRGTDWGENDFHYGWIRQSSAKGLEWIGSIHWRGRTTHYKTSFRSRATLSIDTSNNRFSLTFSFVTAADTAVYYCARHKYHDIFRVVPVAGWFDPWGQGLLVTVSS VL: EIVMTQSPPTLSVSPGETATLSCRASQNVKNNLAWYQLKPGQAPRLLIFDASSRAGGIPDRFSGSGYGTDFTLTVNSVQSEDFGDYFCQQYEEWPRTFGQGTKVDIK : > 50 µg/mL

Data point: PGT-123 (antibody, V domains shown) VH: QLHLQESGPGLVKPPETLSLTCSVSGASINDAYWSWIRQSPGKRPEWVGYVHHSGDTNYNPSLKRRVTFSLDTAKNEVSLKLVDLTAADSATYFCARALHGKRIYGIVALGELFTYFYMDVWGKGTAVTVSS VL: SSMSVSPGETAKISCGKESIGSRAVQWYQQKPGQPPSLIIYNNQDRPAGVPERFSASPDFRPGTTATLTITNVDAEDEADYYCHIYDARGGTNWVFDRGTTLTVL ; IC50 (neutralization) = 0.053 µg/mL

Quick note, IC50 (neutralization) for PGT-127 (antibody, V domains shown) VH: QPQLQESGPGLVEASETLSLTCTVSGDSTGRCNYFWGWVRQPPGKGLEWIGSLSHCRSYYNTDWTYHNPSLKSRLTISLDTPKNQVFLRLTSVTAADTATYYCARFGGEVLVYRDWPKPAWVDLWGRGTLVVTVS VL: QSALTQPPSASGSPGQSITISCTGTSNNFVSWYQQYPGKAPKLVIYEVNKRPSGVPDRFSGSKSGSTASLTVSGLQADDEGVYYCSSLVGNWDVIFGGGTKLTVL landed at 0.119 µg/mL

The measured values listed here are drawn from patent US20160264649A1.
